- tgt: PKC isoform β-II (Homo sapiens)
- Sequence (P05771 1-673 isoform P05771-2): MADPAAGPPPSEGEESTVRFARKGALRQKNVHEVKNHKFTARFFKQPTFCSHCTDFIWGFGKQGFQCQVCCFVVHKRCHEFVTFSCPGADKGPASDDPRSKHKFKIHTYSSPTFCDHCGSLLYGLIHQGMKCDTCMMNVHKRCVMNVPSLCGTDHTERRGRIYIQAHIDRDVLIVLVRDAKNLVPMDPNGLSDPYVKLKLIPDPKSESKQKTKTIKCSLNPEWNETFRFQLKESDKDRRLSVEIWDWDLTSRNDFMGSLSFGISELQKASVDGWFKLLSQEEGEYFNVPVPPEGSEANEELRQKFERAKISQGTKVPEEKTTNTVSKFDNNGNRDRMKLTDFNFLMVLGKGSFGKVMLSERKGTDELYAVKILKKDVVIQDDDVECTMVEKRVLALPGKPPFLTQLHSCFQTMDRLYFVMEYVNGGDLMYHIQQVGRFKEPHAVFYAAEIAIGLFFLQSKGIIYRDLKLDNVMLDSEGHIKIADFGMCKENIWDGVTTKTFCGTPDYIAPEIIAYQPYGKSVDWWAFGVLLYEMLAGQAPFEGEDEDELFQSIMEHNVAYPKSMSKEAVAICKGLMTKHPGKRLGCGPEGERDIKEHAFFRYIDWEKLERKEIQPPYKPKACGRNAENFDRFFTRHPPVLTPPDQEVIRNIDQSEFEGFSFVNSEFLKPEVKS
- test-details: Protein Kinase C histone-based assay, PKC beta II
- conditions: histone substrate, 30 μM ATP, 10 min at 30° C.
Reported IC50 values for a set of compounds
Only the number, expressed in nM, is required.

{"compound": "CN1CCOCCN(C)CCn2cc(c3ccccc32)C2=C(C(=O)NC2=O)c2cn(c3ccccc23)CC1 [Compound 2]", "experimental-value": 41}

Problem: # input compound: O=C1NC(=O)C2=C1c1cn(c3ccccc13)CCNCCOCCNCCn1cc2c2ccccc21 [Compound 3] ; wanted: its IC50
Result: 13

Problem: Lookup CN1CCOCCNCCn2cc(c3ccccc32)C2=C(C(=O)NC2=O)c2cn(c3ccccc23)CC1 [Compound 4]
Result: 8

Problem: Item: O=C1NC(=O)C2=C1c1cn(c3ccccc13)CCNCCSCCNCCn1cc2c2ccccc21 [Compound 1]
Result: 6

----------
- tgt: PKC isoform γ (Homo sapiens, UniProt P05129)
- test-details: Protein Kinase C histone-based assay, PKC gamma
- conditions: histone substrate, 30 μM ATP, 10 min at 30° C.
quantity-kind: IC50 (µM)
Could you give me the number in µM? Just the number is fine.

# example entries with known answers
{"sample-smiles": "CN1CCOCCN(C)CCn2cc(c3ccccc32)C2=C(C(=O)NC2=O)c2cn(c3ccccc23)CC1", "IC50, µM": 1.56}
{"sample-smiles": "O=C1NC(=O)C2=C1c1cn(c3ccccc13)CCNCCOCCNCCn1cc2c2ccccc21", "IC50, µM": 5.84}
{"sample-smiles": "CN1CCOCCNCCn2cc(c3ccccc32)C2=C(C(=O)NC2=O)c2cn(c3ccccc23)CC1", "IC50, µM": 1.2}

Please find the next compound below.
Problem: For the compound shown here, "O=C1NC(=O)C2=C1c1cn(c3ccccc13)CCNCCSCCNCCn1cc2c2ccccc21" , give the reported IC50.
Result: 0.36

----------
- tgt: PKC isoform α (Homo sapiens, UniProt P17252)
- test-details: Protein Kinase C histone-based assay, PKC alpha
- conditions: histone substrate, 30 μM ATP, 10 min at 30° C.
Each item that follows carries a reported IC50.
Provide only the numeric value, understood in nM.

{"sample-smiles": "O=C1NC(=O)C2=C1c1cn(c3ccccc13)CCNCCOCCNCCn1cc2c2ccccc21", "tgt": "PKC isoform α (Homo sapiens, UniProt P17252)", "IC50 (nM)": 330}
{"sample-smiles": "O=C1NC(=O)C2=C1c1cn(c3ccccc13)CCNCCSCCNCCn1cc2c2ccccc21", "tgt": "PKC isoform α (Homo sapiens, UniProt P17252)", "IC50 (nM)": 160}

Problem: Suppose we examine the compound "CN1CCOCCNCCn2cc(c3ccccc32)C2=C(C(=O)NC2=O)c2cn(c3ccccc23)CC1" ; what IC50 value has been reported?
Result: 280

Problem: What do we get for "CN1CCOCCN(C)CCn2cc(c3ccccc32)C2=C(C(=O)NC2=O)c2cn(c3ccccc23)CC1" ?
Result: 490
